RUN DESCRIPTION: Oral pharmacokinetics (plasma, brain, CSF)
Assay type: in vivo, Sprague Dawley rats
PARTICULARS: Sprague Dawley, plasma, po; rat, per os, 10 mg/kg, normal saline
READOUT NAME: Tmax (min)
Value expressed in min; do not type the unit.

MOLECULE	READOUT NAME	VALUE MEASURED
COc1ccc(CN2C[C@@]3(CCNC(=O)C3)C2=O)cc1	Tmax	15

molecule C[C@@H](O)[C@@H](C(=O)NCc1ccccc1)N1CC2(CCNC(=O)C2)C1=O (single isomer, unassigned) , Tmax observed: 30

molecule COc1ccc(CN2CC3(CCN(C)C(=O)C3)C2=O)cc1 (single isomer, unassigned) , Tmax observed: 15

molecule COc1ccc(CN2CC3(CCNC(=O)C3)C2=O)cc1 (racemic) , Tmax observed: 40.2

molecule CCN1CCC2(CC1=O)CN(Cc1ccc(OC)cc1)C2=O (single isomer, unassigned) , Tmax observed: 15

molecule C[C@@H](O)[C@@H](C(=O)N(C)C)N1CC2(CCNC(=O)C2)C1=O (single isomer, unassigned) , Tmax observed: 25.2

molecule COc1ccc(CN2C[C@]3(CCNC(=O)C3)C2=O)cc1 , Tmax observed: 19.8

---

Reported EC50 by item:
TARGET UNDER TEST: NMDAR2B expressing HEK cell membranes (Homo sapiens, UniProt Q13224)
Construct: expressed in transfected cells; host or cells: HEK cells (membrane extract)
Sequence (Q13224 27-1484, other chains not shown): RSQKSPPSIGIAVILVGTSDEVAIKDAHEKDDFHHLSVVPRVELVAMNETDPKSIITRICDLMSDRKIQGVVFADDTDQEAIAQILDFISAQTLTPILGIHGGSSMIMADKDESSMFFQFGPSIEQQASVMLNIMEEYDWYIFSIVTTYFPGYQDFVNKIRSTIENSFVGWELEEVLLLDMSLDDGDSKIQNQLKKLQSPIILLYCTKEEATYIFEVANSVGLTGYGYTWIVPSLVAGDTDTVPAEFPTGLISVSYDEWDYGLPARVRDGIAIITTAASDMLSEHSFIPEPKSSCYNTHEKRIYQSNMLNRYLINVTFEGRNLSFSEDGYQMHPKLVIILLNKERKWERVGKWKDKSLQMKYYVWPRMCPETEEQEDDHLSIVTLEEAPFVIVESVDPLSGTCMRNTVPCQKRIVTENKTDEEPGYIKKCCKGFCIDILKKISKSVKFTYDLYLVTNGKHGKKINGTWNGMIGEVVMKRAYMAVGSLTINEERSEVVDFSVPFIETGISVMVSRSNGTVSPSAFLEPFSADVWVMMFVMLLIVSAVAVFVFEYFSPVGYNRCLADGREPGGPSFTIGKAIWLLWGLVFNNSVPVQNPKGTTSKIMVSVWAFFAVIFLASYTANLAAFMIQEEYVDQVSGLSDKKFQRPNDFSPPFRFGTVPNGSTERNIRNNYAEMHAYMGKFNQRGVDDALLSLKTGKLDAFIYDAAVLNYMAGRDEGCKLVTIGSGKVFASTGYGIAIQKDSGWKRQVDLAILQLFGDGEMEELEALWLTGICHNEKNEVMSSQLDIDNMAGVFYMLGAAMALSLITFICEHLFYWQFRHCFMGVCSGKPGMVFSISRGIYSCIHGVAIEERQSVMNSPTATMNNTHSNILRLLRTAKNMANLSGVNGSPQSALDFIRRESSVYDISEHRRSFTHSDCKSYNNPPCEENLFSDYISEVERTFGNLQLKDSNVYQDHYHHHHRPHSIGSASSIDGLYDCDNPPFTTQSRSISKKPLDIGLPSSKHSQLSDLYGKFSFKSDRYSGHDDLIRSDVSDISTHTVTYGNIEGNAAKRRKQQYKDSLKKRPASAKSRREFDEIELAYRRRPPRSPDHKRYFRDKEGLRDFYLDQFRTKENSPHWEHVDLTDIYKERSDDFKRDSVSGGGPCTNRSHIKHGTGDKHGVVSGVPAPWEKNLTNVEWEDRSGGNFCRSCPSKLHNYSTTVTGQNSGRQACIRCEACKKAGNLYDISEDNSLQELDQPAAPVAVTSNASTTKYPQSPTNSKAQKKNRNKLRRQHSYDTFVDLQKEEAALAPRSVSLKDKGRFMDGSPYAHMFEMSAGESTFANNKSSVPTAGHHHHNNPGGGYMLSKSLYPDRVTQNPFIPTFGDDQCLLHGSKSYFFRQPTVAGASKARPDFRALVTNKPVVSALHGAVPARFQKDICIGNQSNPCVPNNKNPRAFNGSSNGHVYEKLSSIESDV
RUN DESCRIPTION: NMDAR agonist assay, [3H]MK-801 binding, NMDAR2B
Assay type: biochemical
PARTICULARS: 50 μM glutamate; read-out: NMDAR2B B: log EC50 (converted)

// worked examples, EC50 included
COMPOUND	EC50
O=C1CC2(CCN1)CN(Cc1ccccc1)C2=O (single isomer, unassigned)	< 1 nM
NC(=O)CN1CC2(CCNC(=O)C2)C1=O (single isomer, unassigned)	< 1 nM
COc1ccc(CN2CC3(CCN(C)C(=O)C3)C2=O)cc1 (single isomer, unassigned)	< 1 nM
C[C@@H](O)[C@@H](C(=O)N(C)C)N1CC2(CCNC(=O)C2)C1=O (single isomer, unassigned)	< 1 nM
CC1CC(=O)N(C)C12CN(CC(N)=O)C2=O (single isomer, unassigned)	< 1 nM
CC(C)CN1CC2(CCNC(=O)C2)C1=O (single isomer, unassigned)	< 1 nM

Here is another compound to look at.
compound CN1CCC2(CC1=O)CN(Cc1ccccc1)C2=O (single isomer, unassigned) , EC50 observed: < 1 nM

---

RUN DESCRIPTION: IV pharmacokinetics
Design: species or system Sprague Dawley rats
PARTICULARS: Sprague Dawley, in vivo, rat, 2 mg/kg, normal saline
Reported half-life by item:
Value expressed in h; do not type the unit.

MOLECULE	READOUT NAME	UNIT ABBREV	VALUE MEASURED
COc1ccc(CN2C[C@@]3(CCNC(=O)C3)C2=O)cc1	half-life	h	1.25
CCN1CCC2(CC1=O)CN(Cc1ccc(OC)cc1)C2=O (single isomer, unassigned)	half-life	h	0.21
COc1ccc(CN2CC3(CCNC(=O)C3)C2=O)cc1 (racemic)	half-life	h	3.31
COc1ccc(CN2C[C@]3(CCNC(=O)C3)C2=O)cc1	half-life	h	1.12
COc1ccc(CN2CC3(CCN(C)C(=O)C3)C2=O)cc1 (single isomer, unassigned)	half-life	h	0.42
C[C@@H](O)[C@@H](C(=O)NCc1ccccc1)N1CC2(CCNC(=O)C2)C1=O (single isomer, unassigned)	half-life	h	1.77

molecule C[C@@H](O)[C@@H](C(=O)N(C)C)N1CC2(CCNC(=O)C2)C1=O (single isomer, unassigned) , half-life observed: 2.11
